fold by which cyclo SS-octa is more potent than the analog, 125I-NMB binding values by entry
TESTED_ON: rat NMB receptor (Rattus norvegicus)
Construct: a full length NMB-preferring bombesin receptor clone generated from rat esophagus; expressed in transfected cells
Sequence (P24053 1-390): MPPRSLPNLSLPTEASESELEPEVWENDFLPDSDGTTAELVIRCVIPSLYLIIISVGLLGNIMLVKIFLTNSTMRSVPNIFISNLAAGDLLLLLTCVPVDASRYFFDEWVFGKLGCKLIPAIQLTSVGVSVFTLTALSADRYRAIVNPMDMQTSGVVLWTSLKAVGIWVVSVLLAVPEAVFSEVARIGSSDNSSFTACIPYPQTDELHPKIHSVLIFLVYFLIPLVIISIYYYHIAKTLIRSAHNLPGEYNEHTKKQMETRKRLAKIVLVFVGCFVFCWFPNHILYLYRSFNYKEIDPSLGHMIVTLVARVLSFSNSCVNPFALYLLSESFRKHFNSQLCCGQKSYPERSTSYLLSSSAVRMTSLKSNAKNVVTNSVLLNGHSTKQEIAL
ASSAY_PROTOCOL: Binding of 125I-[D-Tyr0]NMB to NMB-R transfected BALB 3T3 cells
COND: NMB-R transfected cells
Where a SMILES comes first, the peptide text is derived from it. Bridges are numbered along the chain shown (N, C = ends). [ ]: non-standard residue; d: D form. 2Nal = N[C@@H](Cc1ccc2ccccc2c1)C(=O)O; d2Nal = N[C@H](Cc1ccc2ccccc2c1)C(=O)O; Lys(Et2) = CCN(CC)CCCC[C@H](N)C(=O)O
Quick note: give the figure in fold, leave out the unit.

[ask] Please supply the value of reported fold by which cyclo SS-octa is more potent than the analog, 125I-NMB binding for the item C[C@@H](O)[C@@H]1NC(=O)[C@H](CCCCN)NC(=O)[C@@H](Cc2c[nH]c3ccccc23)NC(=O)[C@H](Cc2ccc(O)cc2)NC(=O)[C@@H](NC(=O)[C@H](N)Cc2ccccc2)CSSC[C@@H](C(=O)N[C@@H](Cc2ccc3ccccc3c2)C(N)=O)NC1=O [Analog #7] (H-[dF]CY[dW]KTC[2Nal]-NH2; disulfide 2-7)
[reply] 18

[ask] Please supply the value of reported fold by which cyclo SS-octa is more potent than the analog, 125I-NMB binding for the item CC(C)[C@@H]1NC(=O)[C@H](CCCCN)NC(=O)[C@@H](Cc2ccc3ccccc3c2)NC(=O)[C@H](Cc2ccc(O)cc2)NC(=O)[C@@H](NC(=O)[C@H](N)Cc2ccc3ccccc3c2)CSSC[C@@H](C(=O)N[C@@H](Cc2ccc3ccccc3c2)C(N)=O)NC1=O [Analog #17] (H-[d2Nal]CY[d2Nal]KVC[2Nal]-NH2; disulfide 2-7)
[reply] 2

[ask] Please supply the value of reported fold by which cyclo SS-octa is more potent than the analog, 125I-NMB binding for the item CC(C)[C@@H]1NC(=O)[C@H](CCCCN)NC(=O)[C@@H](Cc2c[nH]c3ccccc23)NC(=O)[C@H](Cc2ccc(O)cc2)NC(=O)[C@@H](NC(=O)[C@H](N)Cc2ccc3ccccc3c2)CSSC[C@@H](C(=O)N[C@H](Cc2ccc3ccccc3c2)C(N)=O)NC1=O [Analog #8] (H-[d2Nal]CY[dW]KVC[d2Nal]-NH2; disulfide 2-7)
[reply] 9

[ask] Please supply the value of reported fold by which cyclo SS-octa is more potent than the analog, 125I-NMB binding for the item CCN(CC)CCCC[C@@H]1NC(=O)[C@@H](Cc2c[nH]c3ccccc23)NC(=O)[C@H](Cc2ccc(O)cc2)NC(=O)[C@@H](NC(=O)[C@H](N)Cc2ccccc2)CSSC[C@@H](C(=O)N[C@@H](Cc2ccc3ccccc3c2)C(N)=O)NC(=O)[C@H]([C@@H](C)O)NC1=O [Analog #16] (H-[dF]CY[dW][Lys(Et2)]TC[2Nal]-NH2; disulfide 2-7)
[reply] 18
